- Tested on: HCT-116
- MEASUREMENT NOTES: MTT antiproliferative assay, HCT-116
- Assay type: cell-based, human
- CONDITION CONTEXT: Homo sapiens, 72 h, colorectal carcinoma HCT-116
QUANTITY NAME: IC50 (µM)

I. O=c1[nH]cc(F)c(=O)[nH]1 [5-Fu, fluorouracil, reference compound]
II. NCCOc1no[n+]([O-])c1S(=O)(=O)c1ccccc1
Query :: Lab log: flag the item ( I or II ) with the smaller IC50 figure. Output the label that corresponds to your choice.
Result :: I

* * *

- Test system: PBMC
- MEASUREMENT NOTES: MTT assay, peripheral blood mononuclear cells
- Format: cell-based, human
- CONDITION CONTEXT: Homo sapiens, PBMC, 72 h
pIC50: −log10 of the molar value.
pIC50 by entry:

Cc1ccc2occ(C(=O)O)c(=O)c2c1 = < 4.30
Cc1ccc2occ(C(=O)NCCOc3no[n+]([O-])c3S(=O)(=O)c3ccccc3)c(=O)c2c1 [12a] = < 4.30
O=c1[nH]cc(F)c(=O)[nH]1 [5-Fu, fluorouracil, reference compound] = < 4.30
O=S(=O)(c1ccccc1)c1c(OCCN2CCNCC2)no[n+]1[O-] = < 4.30
Cc1ccc2occ(C(=O)N3CCN(CCOc4no[n+]([O-])c4S(=O)(=O)c4ccccc4)CC3)c(=O)c2c1 [14c] = < 4.30
COc1ccc2occ(C(=O)O)c(=O)c2c1 = < 4.30

Query :: Name the recorded pIC50 for NCCCOc1no[n+]([O-])c1S(=O)(=O)c1ccccc1 .
Result :: < 4.30

Query :: Returns the measured pIC50 for the input compound. Input: COc1ccc2occ(C(=O)N3CCN(CCOc4no[n+]([O-])c4S(=O)(=O)c4ccccc4)CC3)c(=O)c2c1 [15c]
Result :: < 4.30

Query :: Any idea what its pIC50 is? The compound is COc1ccc2occ(C(=O)NCCCOc3no[n+]([O-])c3S(=O)(=O)c3ccccc3)c(=O)c2c1 [13c]
Result :: < 4.30
